System: HOP-18
Experiment: NCI tumour cell line growth inhibition, 48 h
The source made the active and inactive calls. Cut-off read from the data, not from the text of the source: active = GI50 up to about 1.1 µM and inactive = higher.
Return exactly one item of active, inactive

Record excerpt, results attached:
COMPOUND: O=[N+]([O-])c1ccc(-c2noc(-c3ccccc3)c2C2=NCCN2)cc1
TARGET_OR_TEST_SYSTEM: HOP-18
CATEGORY_LABEL: inactive

COMPOUND: Cc1ccc(/C=N/NS(=O)(=O)c2ccccc2)cc1
TARGET_OR_TEST_SYSTEM: HOP-18
CATEGORY_LABEL: inactive

COMPOUND: CSc1nc(NC2OCC(O)C(O)C2O)c(N)c(=O)[nH]1 (stereo not drawn)
TARGET_OR_TEST_SYSTEM: HOP-18
CATEGORY_LABEL: inactive

COMPOUND: Cc1[nH]c2ccccc2c1C(=O)/C=C/c1ccccc1O
TARGET_OR_TEST_SYSTEM: HOP-18
CATEGORY_LABEL: inactive

-- ask Would you mind telling me which call this test gave `COc1ccc(/N=N/c2c(-c3ccccc3)nn(C(=O)CC(=O)Nc3cccc(Cl)c3)c2-c2ccccc2)cc1` ?
-- reply inactive

-- ask Would you mind telling me which call this test gave `O=C1c2ccccc2C(=O)c2c(/C=C\N3CCCCC3)ccnc21` ?
-- reply inactive

-- ask Would you mind telling me which call this test gave `S=c1c2ccccc2c(=S)n2n1CC=CC2` ?
-- reply inactive

----------
System: A498
Test: NCI tumour cell line growth inhibition, 48 h
Calls of active or inactive are those of the source. No stated cut-off is given here; in the data, active = GI50 up to about 1.1 µM and inactive = higher.
Overview of recorded GI50 for various compounds

Example entries begin here.
STRUCTURE_SMILES_STRING: Cc1cc(=O)oc2c1cc(OCC(=O)OCCN1CCCCC1)c1occ(C)c12
GI50: > 100 µM (inactive)
--
STRUCTURE_SMILES_STRING: O=C(NC(=O)c1ccccc1[N+](=O)[O-])Nc1ccc(Oc2ncc(Cl)cn2)c([N+](=O)[O-])c1
GI50: 0.301 µM (active)
--
STRUCTURE_SMILES_STRING: O=C1C(Cl)=C(NCCF)C(=O)c2ncccc21
GI50: 4.12 µM (inactive)

Proceeding to the next compound to report its GI50.
Item: `CC1(C)O[C@@H]2[C@@H](COC(=O)c3ccccc3)C[C@@H](C#N)[C@@H]2O1` | GI50: > 100 µM (inactive)

----------
Overview of recorded GI50 for various compounds
System: SF-539
Assay: NCI tumour cell line growth inhibition, 48 h
The source made the active and inactive calls. Rule as the data show it: active = GI50 up to about 1.1 µM and inactive = higher.

COMPOUND: COCCOCC(=O)N(CCn1ccc(NC(c2ccccc2)(c2ccccc2)c2ccccc2)nc1=O)CCn1cnc2nc(N)[nH]c(=O)c21
TARGET_OR_TEST_SYSTEM: SF-539
GI50: > 100 µM (inactive)

Item: `CN(C)CCCNCc1cccc2ccccc12` | GI50: > 100 µM (inactive)

Item: CC(=O)OC1OC(c2ccoc2)C[C@@]12C1CCC3O[C@]3(C)[C@]1(C)[C@H](OC(C)=O)[C@H](OC(C)=O)[C@H]2C (stereo partly drawn) | GI50: > 37.5 µM (inactive)

Item: `COc1nc2c(c(=O)n1C)N[C@@H]1[C@@H](O)[C@H](O)CO[C@@H]1N2` | GI50: > 100 µM (inactive)

Item: `COc1ccc([C@H]2[C@H]3COC(=O)[C@H]3C(C#N)=C3Sc4ccccc4N32)cc1` | GI50: 22.3 µM (inactive)

Item: `NC(=O)C/C=C/CC(N)=O` | GI50: > 100 µM (inactive)

Item: `CCCCCCCCCC[C@H](O)[C@H](O)CC[C@@H](O)[C@H]1CC[C@@H]([C@H]2CC[C@H](CCCCCCC[C@@H](O)CC3=C[C@H](C)OC3=O)O2)O1` | GI50: 4.48 µM (inactive)

Item: `CCOc1ccc(/C=C2/C(=O)N/C(=N\C(C)=O)N2C)cc1` | GI50: > 100 µM (inactive)

----------
System: HCC 2998
Experiment: NCI tumour cell line growth inhibition, 48 h
Activity calls are given as the source filed them. No stated cut-off is given here; in the data, active = GI50 up to about 1.1 µM and inactive = higher.
Return exactly one item of active, inactive

STRUCTURE_SMILES_STRING: COc1ccc(-c2oc3c(CC(=O)O)cccc3c(=O)c2OC)cc1
CATEGORY_LABEL: inactive

STRUCTURE_SMILES_STRING: CCOC(=O)Cn1nnc2ccc(Nc3nc4ccccc4nc3C(=O)OCC)cc21
CATEGORY_LABEL: inactive

STRUCTURE_SMILES_STRING: CSc1ccc2c(cc1=O)[C@@H](NC(=O)c1cc(O)c(O)c(O)c1)CCc1cc(O)c(O)c(O)c1-2
CATEGORY_LABEL: inactive

STRUCTURE_SMILES_STRING: CC(=N/NC(=S)N(C)C)/C(=N\NC(=S)N(C)C)c1ccccc1
CATEGORY_LABEL: active

Switching to the query record.
-- ask Would you mind telling me which call this test gave `N/C(CCSCCSCC/C(N)=N\O)=N\O` ?
-- reply inactive

----------
System: LOX IMVI
Assay: NCI tumour cell line growth inhibition, 48 h
Activity calls are given as the source filed them. Cut-off read from the data, not from the text of the source: active = GI50 up to about 1.1 µM and inactive = higher.
Return exactly one item of True = active, False = inactive

Record excerpt, results attached:
COMPOUND: CC(/C=C/C(=O)NO)=C\C(C)C(=O)c1ccc(N(C)C)cc1 (configuration not stated)
TARGET_OR_TEST_SYSTEM: LOX IMVI
CATEGORY_LABEL: True
//
COMPOUND: CC1(C)CNCC(C)(OCc2ccccc2)C(=O)NC(C)(C)CNCC(C)(OCc2ccccc2)C(=O)N1 (configuration not stated)
TARGET_OR_TEST_SYSTEM: LOX IMVI
CATEGORY_LABEL: False
//
COMPOUND: C[C@@H]1[C@H](C)N1CC(O)Cn1ccnc1[N+](=O)[O-] (some centres not stated)
TARGET_OR_TEST_SYSTEM: LOX IMVI
CATEGORY_LABEL: False
//
COMPOUND: Cc1ccc(C(=O)O)cc1NC(=O)c1cc(/C=C/c2ccccc2)[nH]c(=S)n1
TARGET_OR_TEST_SYSTEM: LOX IMVI
CATEGORY_LABEL: False

Switching to the query record.
-- ask Would you mind telling me which call this test gave `O=C(Cc1cccs1)N[C@@H]1C(=O)N2C(C(=O)OC(c3ccccc3)c3ccccc3)=C(CO)CS[C@H]12` ?
-- reply False

----------
Tested on: HOP-62
Test: NCI tumour cell line growth inhibition, 48 h
Calls of active or inactive are those of the source. Rule as the data show it: active = GI50 up to about 1.1 µM and inactive = higher.
Overview of recorded GI50 for various molecules

MOLECULE: O=C(O)/C=C\C(=O)Nc1ccc(S(=O)(=O)c2ccc(NC(=O)/C=C\C(=O)O)cc2)cc1
GI50: > 100 µM (inactive)

MOLECULE: CC1(C)OCC(C2OC(OC(=O)c3ccc(C(F)(F)F)cc3)C3OC(C)(C)OC23)O1 (centres undefined)
GI50: 39.9 µM (inactive)

MOLECULE: COc1cc2nncc(Sc3cnnc4ccccc34)c2cc1OC
GI50: 34.3 µM (inactive)

MOLECULE: Cc1cccc2c(=O)c3cccc([C@@H](C)C(=O)O)c3oc12
GI50: > 100 µM (inactive)

MOLECULE: Nc1ccn([C@@H]2C=C(CO)[C@@H](O)[C@H]2O)c(=O)n1
GI50: 0.102 µM (active)

MOLECULE: O=C(N/C(=C\c1cccc([N+](=O)[O-])c1)c1nc2c3c(ccc2[nH]1)C(=O)c1ccccc1C3=O)c1ccccc1
GI50: 37.8 µM (inactive)

Kindly note: HOP-62, `O=C(Oc1ccccc1)c1cc2cc(CCl)ccc2oc1=O` , GI50 value reported: 26.5 µM (inactive)

Kindly note: HOP-62, `CCOC(=O)c1csc(NC(=O)CCN(CC)CC)n1` , GI50 value reported: > 100 µM (inactive)

Kindly note: HOP-62, `Cc1ccc2nc(-c3ccc(-n4c(C)nc(=O)c(-c5ccc(F)cc5)c4C)cc3)sc2c1` , GI50 value reported: 22 µM (inactive)

Kindly note: HOP-62, `CC1(C)O[C@@H]2[C@@H](COC(=O)c3ccccc3)C[C@@H](C#N)[C@@H]2O1` , GI50 value reported: > 100 µM (inactive)

Kindly note: HOP-62, `COc1cccc(/C=C2\CCCCCC2=O)c1` , GI50 value reported: > 100 µM (inactive)

----------
System: T47D
Assay: NCI tumour cell line growth inhibition, 48 h
Calls of active or inactive are those of the source. No stated cut-off is given here; in the data, active = GI50 up to about 1.1 µM and inactive = higher.
Return exactly one item of t for active, f for inactive

MOLECULE: Cc1c(C)c2c(c(N)c1C#N)C(=O)N(O)C2=O
TARGET_OR_TEST_SYSTEM: T47D
CATEGORY_LABEL: f

MOLECULE: O=C(/C=C/c1cc2ccccc2o1)N1CCN(c2ccccn2)CC1
TARGET_OR_TEST_SYSTEM: T47D
CATEGORY_LABEL: f

MOLECULE: CC[C@@]1(OC(=O)C(N)CCCCN)C(=O)OCc2c1cc1n(c2=O)Cc2cc3ccccc3nc2-1 (stereo not given in full)
TARGET_OR_TEST_SYSTEM: T47D
CATEGORY_LABEL: t

MOLECULE: O=C(NC(=O)c1ccccc1[N+](=O)[O-])Nc1ccc(Oc2ncc(Cl)cn2)c([N+](=O)[O-])c1
TARGET_OR_TEST_SYSTEM: T47D
CATEGORY_LABEL: t

Switching to the query record.
-- ask Would you mind telling me which call this test gave `CCCCc1ccc(-n2sc3ncc(C)cc3c2=O)cc1` ?
-- reply f
